SYSTEM: T1, Recombinant mouse MMR (R&D systems) (mouse, UniProt Q61830 20-1388)
T1 construct: Antigen of the PE-ELISA and the SPR; also called mMMR; recombinant mMMR
T1 sequence: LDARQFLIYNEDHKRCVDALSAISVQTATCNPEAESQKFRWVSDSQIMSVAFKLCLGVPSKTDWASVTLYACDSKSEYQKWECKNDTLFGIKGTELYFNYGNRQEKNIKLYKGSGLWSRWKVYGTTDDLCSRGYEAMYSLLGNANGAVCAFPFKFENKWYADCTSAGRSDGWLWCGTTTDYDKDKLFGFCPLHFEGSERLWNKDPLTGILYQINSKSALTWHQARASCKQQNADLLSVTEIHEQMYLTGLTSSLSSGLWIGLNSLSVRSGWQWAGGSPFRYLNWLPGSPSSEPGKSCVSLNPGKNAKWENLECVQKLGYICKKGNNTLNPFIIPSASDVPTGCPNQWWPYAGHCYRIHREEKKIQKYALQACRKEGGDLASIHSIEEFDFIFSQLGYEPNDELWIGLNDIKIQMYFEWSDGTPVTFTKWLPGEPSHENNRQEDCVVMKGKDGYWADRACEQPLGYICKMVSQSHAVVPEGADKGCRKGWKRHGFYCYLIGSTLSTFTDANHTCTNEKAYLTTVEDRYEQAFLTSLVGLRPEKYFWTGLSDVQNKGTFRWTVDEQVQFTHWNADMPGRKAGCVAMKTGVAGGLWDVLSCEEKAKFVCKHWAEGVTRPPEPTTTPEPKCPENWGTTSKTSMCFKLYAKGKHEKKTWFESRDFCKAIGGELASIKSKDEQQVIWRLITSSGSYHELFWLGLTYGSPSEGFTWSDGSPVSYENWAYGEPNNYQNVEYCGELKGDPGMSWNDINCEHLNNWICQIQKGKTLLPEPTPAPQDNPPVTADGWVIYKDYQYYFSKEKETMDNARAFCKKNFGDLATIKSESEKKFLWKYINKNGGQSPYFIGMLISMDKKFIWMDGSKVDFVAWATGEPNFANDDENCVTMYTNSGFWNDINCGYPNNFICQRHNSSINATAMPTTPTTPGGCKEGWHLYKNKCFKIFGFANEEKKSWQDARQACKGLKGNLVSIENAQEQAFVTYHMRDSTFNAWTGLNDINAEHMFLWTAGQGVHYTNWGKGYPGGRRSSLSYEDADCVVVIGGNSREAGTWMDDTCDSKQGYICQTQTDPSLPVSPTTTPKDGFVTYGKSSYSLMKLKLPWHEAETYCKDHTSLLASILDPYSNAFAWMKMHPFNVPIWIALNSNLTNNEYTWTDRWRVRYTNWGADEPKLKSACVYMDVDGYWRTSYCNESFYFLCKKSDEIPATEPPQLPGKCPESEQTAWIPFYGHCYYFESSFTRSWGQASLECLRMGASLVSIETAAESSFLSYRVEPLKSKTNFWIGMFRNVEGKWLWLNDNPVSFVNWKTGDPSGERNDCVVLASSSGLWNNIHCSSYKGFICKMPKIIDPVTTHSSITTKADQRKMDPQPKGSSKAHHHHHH
EXPERIMENT: SPR, BIAcore T100; mouse MMR on CM5 chip, sdAb as analyte
Protocol: Affinity analysis was performed using a BIAcore™ T100 (GE Healthcare) with HEPES-buffered saline running buffer (10 mM HEPES with 0.15 M NaCl, 3.4 mM EDTA and 0.005% surfactant P20 at pH 7.4). MRR was immobilized on a CM5 chip in acetate buffer 50 mM (pH 5.0), resulting in 2100 RU MMR coated on the chip. […] The kinetic and equilibrium parameters (kd, ka and KD) values were calculated from the combined sensogram of all concentrations using BIAcore™ T100 evaluation software 2.02 (GE Healthcare). […]
Each entry below carries its recorded koff.
Express your answer in s⁻¹, writing the number without its unit.

Use the examples below as a reference point.
NbhmMMRm14.4 (VHH, Produced from pMECS with C-terminal HA and 6xHis tag) VHH: QVQLQESGGGLVQAGDSLRLSCAASGRTFSINYMGWYRQAPGKQRELVAAITSGSGSTNYADSVKGRFTISRDNAKNTMYLQMNSLKPEDTAVYYCNADMDSSLSGGYVDVWGQGTQVTVSS; 0.0023
NbhMMRm10.19 (VHH, Produced from pMECS with C-terminal HA and 6xHis tag) VHH: QVQLQESGGGLVQPGGSLKLSCAASGSIFSIKTMGWYRQAPGKQRELVAAITSGGSTNYADSVKGRFTISRDNAKNTVYLQMNSLKPEDTAVYYCNADGVVAWDQPYDNYWGQGTQVTVSS; 0.21
NbhMMRm5.38 (VHH, Produced from pMECS with C-terminal HA and 6xHis tag; also called NbhmMMRm5.38; Nb5.38) VHH: QVQLQESGGGLVQAGGSLRLSCAASGFTDDDYDIGWFRQAPGKEREGVSCISSSDGSTYYADSVKGRFTISSDNAKNTVYLQMNSLKPEDTAVYYCAADFFRWDSGSYYVRGCRHATYDYWGQGTQVTVSS; 0.0033

Then there is this binder:
stdin: Give the value of koff reported for the following: NbhmMMRm3.49 (VHH, Produced from pMECS with C-terminal HA and 6xHis tag; also called NbhMMRm3.49) VHH: QVQLQESGGGLVQPGGSLRLSCAASGFSLDYYAIGWFRQAPGKEREGISCISYKGGSTTYADSVKGRFTISKDNAKNTAYLQMNSLKPEDTGIYSCAAGFVCYNYDYWGQGTQVTVSS
stdout: 0.0036

Source: patent US20150093336A1
